System: Septoria nodorum
measurement description: Test F: wheat glume blotch on wheat seedlings, sprayed the day before inoculation, visual disease rating
Assay type: in vivo
details: 200 ppm; 100 = 100% disease control, 0 = no control

compound	Test F disease control rating [%]
CN(C)c1ncn(Cc2cccc(Cl)c2)c1-c1ccc(Cl)cc1 [compound 273]	0
COc1cc(F)c(-c2c(Cl)nc(C)n2Cc2ccc(C)cc2)c(F)c1 [compound 296]	86
COc1cc(F)c(-c2c(Cl)nc(Br)n2-c2ccc(C)cc2)c(F)c1 [compound 148]	99
COc1cc(F)c(-c2c(Cl)nc(Br)n2Cc2ccc(C)cc2)c(F)c1 [compound 292]	69
Fc1cccc(F)c1-n1cnc(Br)c1-c1ccc(Cl)cc1 [compound 200]	0
Cc1ccc(-n2c(Br)nc(Cl)c2-c2c(F)cc(F)cc2F)cc1 [compound 153]	69
Fc1cccc(F)c1-n1c(Cl)nc(Cl)c1-c1ccc(Cl)cc1 [compound 150]	60
Fc1ccc(-n2c(Br)nc(Cl)c2-c2c(F)cccc2F)cc1F [compound 169]	40
Cc1nc(Cl)c(-c2c(F)cccc2Cl)n1-c1ccc(F)cc1 [compound 189]	51
COc1ccc(F)c(-c2c(Cl)nc(C)n2Cc2ccc(Cl)cc2)c1F [compound 294]	98
Fc1cc(-n2c(Cl)nc(CCl)c2-c2ccccc2F)ccc1Cl [compound 259]	0
Cc1ncn(-c2ccc(Cl)c(F)c2)c1-c1c(Cl)cncc1Cl [compound 255]	0
COc1ccc(F)c(-c2c(Cl)nc(Br)n2-c2ccc(C)cc2)c1F [compound 281]	97
Fc1ccc(-n2cnc(Cl)c2-c2c(F)ccc(F)c2Cl)cc1 [compound 176]	0
Cc1ccc(-n2c(Br)nc(Cl)c2-c2c(F)cccc2Cl)cc1 [compound 186]	0
COc1ccc(Cn2cnc(Cl)c2-c2c(F)cccc2F)cc1 [compound 194]	73
COc1cc(F)c(-c2c(Cl)nc(Br)n2Cc2ccc(Cl)cc2)c(F)c1 [compound 283]	0
Fc1cc(-n2c(Cl)nc(Cl)c2-c2c(F)cccc2Cl)ccc1Cl [compound 230]	0

# credit: patent US20110045101A1
